- measured target: CDK2 (Homo sapiens)
- Construct: endogenous in cells; host or cells: MKN1 cells
- assay method text: CDK2 degradation in MKN1 cells (AlphaLISA)
- Format: cell-based
- condition notes: 14 h incubation
endpoint: CDK2 degradation 14 h: Average Dmax %

{"columns": ["compound", "endpoint", "value"],
 "data": [
  ["COc1ccc2c(c1N1CCC(CN3CCC4(CC3)CC(S(=O)(=O)c3ccc(Nc5ncc6cc(Cl)c(=O)n(C7CCCC7)c6n5)c(C)c3)C4)CC1)n(C)c(=O)n2C1CCC(=O)NC1=O (stereo not shown)", "CDK2 degradation 14 h: Average Dmax %", "A (A (>75% o))"],
  ["Cc1cc(S(=O)(=O)C2CC3(CCN(CC4CCN(c5cccc6c5n(C)c(=O)n6C5CCC(=O)NC5=O)CC4)CC3)C2)ccc1Nc1ncc(C(F)(F)F)c(N2CCC(C(C)(C)O)C2)n1 (stereo not shown) [I-842]", "CDK2 degradation 14 h: Average Dmax %", "A (A (>75% o))"],
  ["Cc1cc(S(=O)(=O)C2CC3(CCN(CC4CCN(c5ccc6c(c5F)n(C)c(=O)n6C5CCC(=O)NC5=O)CC4)CC3)C2)ccc1Nc1ncc(C(F)(F)F)c(C2CCC(O)(C(C)C)CC2)n1 (stereo not shown)", "CDK2 degradation 14 h: Average Dmax %", "B (B (>50% -75%))"],
  ["Cc1cc(S(=O)(=O)NC2CC(N3CCC(F)(CN4CCC(c5cccc6c5n(C)c(=O)n6C5CCC(=O)NC5=O)CC4)CC3)C2)ccc1Nc1ncc(C(F)(F)F)c(N2CCCC(C)(O)C2)n1 (stereo not shown)", "CDK2 degradation 14 h: Average Dmax %", "A (A (>75% o))"],
  ["CC1(O)CCCN(c2nc(Nc3ccc(S(=O)(=O)NC4CCC(CN5CCN(c6ccc(C7CCC(=O)NC7=O)cc6F)CC5)CC4)cc3OC(F)F)ncc2C(F)(F)F)C1 (stereo not shown)", "CDK2 degradation 14 h: Average Dmax %", "A (A (>75% o))"],
  ["Cc1cc(S(=O)(=O)N2CCC(F)(CN(C)C3CCN(c4cccc5c4n(C)c(=O)n5C4CCC(=O)NC4=O)CC3)CC2)ccc1Nc1ncc2cc(Cl)c(=O)n(C3CCCC34CC4)c2n1 (stereo not shown)", "CDK2 degradation 14 h: Average Dmax %", "B (B (>50% -75%))"],
  ["Cc1cc(S(=O)(=O)NC2CC(N3CCN(CC4CCN(c5cc(NC6CCC(=O)NC6=O)ccc5Cl)CC4)CC3)C2)ccc1Nc1ncc(C(F)(F)F)c(N2CCCC(C)(O)C2)n1 (stereo not shown)", "CDK2 degradation 14 h: Average Dmax %", "A (A (>75% o))"],
  ["Cc1cc(S(=O)(=O)N2CCC(N3CCC(CN(C)c4cccc5c4n(C)c(=O)n5C4CCC(=O)NC4=O)CC3)CC2)ccc1Nc1ncc2cc(C(F)F)c(=O)n(C3CCCC34CC4)c2n1 (stereo not shown)", "CDK2 degradation 14 h: Average Dmax %", "A (A (>75% o))"]
]}

query: Supply reported CDK2 degradation 14 h: Average Dmax % belonging to this compound: Cc1cc(S(=O)(=O)NC(C)COC2CCC(CN3CCN(c4ccc5c(c4F)n(C)c(=O)n5C4CCC(=O)NC4=O)CC3)CC2)ccc1Nc1ncc(C(F)(F)F)c(N2CCCC(C)(O)C2)n1 (stereo not shown) [I-844]
result: A (A (>75% o))

* * *

Consider the following compounds; for each one, report its DC50.
- measured target: CDK2 (Homo sapiens, UniProt P24941)
- Construct: endogenous in cells; host or cells: MKN1 cells
- assay method text: CDK2 degradation in MKN1 cells (AlphaLISA)
- Assay type: cell-based
- condition notes: 14 h incubation, read-out: CDK2 degradation 14 h: Mean external-Abs DC50

query: Supply reported DC50 belonging to this compound: Cc1nn(C2CCC(=O)NC2=O)c2ccc(N3CCN(CC4CCC(NS(=O)(=O)c5ccc(Nc6ncc(C(F)(F)F)c(N7CCCC(C)(O)C7)n6)c(F)c5)CC4)CC3)cc12 (centres unmarked) [I-1065]
result: < 100 nM

query: Supply reported DC50 belonging to this compound: Cc1cc(S(=O)(=O)NC2CCC(CN3CCN(c4ccc(C5CCC(=O)NC5=O)cc4F)C(C)C3)CC2)ccc1Nc1ncc(C(F)(F)F)c(N2CCCC(C)(O)C2)n1 (centres unmarked) [I-1137]
result: < 100 nM

query: Supply reported DC50 belonging to this compound: Cc1cc(S(=O)(=O)N2CCC(CN(C)C3CCN(c4cccc5c4n(C)c(=O)n5C4CCC(=O)NC4=O)CC3)CC2)ccc1Nc1ncc2cc(F)c(=O)n(C3CCCC3)c2n1 (centres unmarked) [I-342]
result: < 100 nM

query: Supply reported DC50 belonging to this compound: Cc1cc(S(=O)(=O)NCCCN2CCC(OC3CCN(c4ccc5c(c4)n(C)c(=O)n5C4CCC(=O)NC4=O)CC3)CC2)ccc1Nc1ncc2cc(Cl)c(=O)n(C3CCCC3)c2n1 (centres unmarked) [I-433]
result: < 100 nM

query: Supply reported DC50 belonging to this compound: Cc1cc(S(=O)(=O)C2CC3(CCN(CC4CCN(c5ccc6c(c5F)n(C)c(=O)n6C5CCC(=O)NC5=O)CC4)CC3)C2)ccc1Nc1ncc2cc(Cl)c(=O)n(C3CCOCC3)c2n1 (centres unmarked) [I-130]
result: > 1000 nM

* * *

- measured target: CDK2 (Homo sapiens, UniProt P24941)
- Construct: endogenous in cells; host or cells: MKN1 cells
- assay method text: CDK2 degradation in MKN1 cells (AlphaLISA)
- Format: cell-based
- condition notes: 14 h incubation, read-out: CDK2 degradation 14 h: Mean external-Abs DC50
endpoint: DC50

query: Supply reported DC50 belonging to this molecule: Cc1cc(S(=O)(=O)NC2CC(N3CCN(CC4CN(c5cccc6c5n(C)c(=O)n6C5CCC(=O)NC5=O)C4)CC3)C2)ccc1Nc1ncc(C(F)(F)F)c(C2CCC(C)(O)CC2)n1 (stereo not drawn) [I-847]
result: < 100 nM

query: Supply reported DC50 belonging to this molecule: Cc1cc(S(=O)(=O)NC2CCC(CCN3CCN(c4ccc(C5CCC(=O)NC5=O)cc4F)CC3)CC2)ccc1Nc1ncc2c(n1)N(C1CCCC(O)C1)C(=O)C21CC1 (stereo not drawn) [I-939]
result: < 100 nM

query: Supply reported DC50 belonging to this molecule: Cc1cc(S(=O)(=O)NC(C)COC2CCC(CN3CC(c4ccc5c(c4F)n(C)c(=O)n5C4CCC(=O)NC4=O)C3)CC2)ccc1Nc1ncc(C(F)(F)F)c(N2CCCC(C)(O)C2)n1 (stereo not drawn) [I-848]
result: < 100 nM

* * *

- measured target: CDK2 (Homo sapiens)
- Construct: endogenous in cells; host or cells: MKN1 cells
- assay method text: CDK2 degradation in MKN1 cells (AlphaLISA)
- Type: cell-based
- condition notes: 14 h incubation, read-out: CDK2 degradation 14 h: Mean external-Abs DC50
- Description: Degradation of CDK2 in MKN1 cells was measured using AlphaLISA technology (PerkinElmer ALSU-TCDK2-A10K). MKN1 cells were maintained in RPMI1640 medium containing 10% FBS+1× penn/strep. […] Under subdued light, the plates were analyzed on an EnVision Microplate Reader (PerkinElmer Model 2009-0030). […] The data were analyzed using Xlfit (v5.3. 1.3) and the dose-dependent CDK2 degradation data were fit using a four-parameter logistic model to calculate DC50.
Consider the following compounds; for each one, report its DC50.

query: Supply reported DC50 belonging to this compound: CC1(O)CCCN(c2nc(Nc3ccc(S(=O)(=O)NC4CCN(CC5(C)CCN(c6ccc(C7CCC(=O)NC7=O)c(F)c6)CC5)CC4F)cc3F)ncc2C(F)(F)F)C1 (stereo not drawn) [I-1069]
result: < 100 nM

query: Supply reported DC50 belonging to this compound: Cc1cc(S(=O)(=O)NC2CCN(CC3CCN(c4ccc(C5CCC(=O)NC5=O)cc4F)CC3)CC2F)ccc1Nc1ncc(C(F)(F)F)c(N2CCCC(C)(O)C2)n1 (stereo not drawn) [I-1141]
result: < 100 nM

query: Supply reported DC50 belonging to this compound: Cc1cc(S(=O)(=O)N2CCC(C(F)(F)CN3CCN(c4cccc5c4n(C)c(=O)n5C4CCC(=O)NC4=O)CC3)CC2)ccc1Nc1ncc2cc(Cl)c(=O)n(C3CCCC3)c2n1 (stereo not drawn) [I-163]
result: > 1000 nM

* * *

- measured target: CDK2 (Homo sapiens, UniProt P24941)
- Construct: endogenous in cells; host or cells: MKN1 cells
- assay method text: CDK2 degradation in MKN1 cells (AlphaLISA)
- Assay type: cell-based
- condition notes: 14 h incubation
- Procedure: Degradation of CDK2 in MKN1 cells was measured using AlphaLISA technology (PerkinElmer ALSU-TCDK2-A10K). MKN1 cells were maintained in RPMI1640 medium containing 10% FBS+1× penn/strep. […] Under subdued light, the plates were analyzed on an EnVision Microplate Reader (PerkinElmer Model 2009-0030). […] The data were analyzed using Xlfit (v5.3. 1.3) and the dose-dependent CDK2 degradation data were fit using a four-parameter logistic model to calculate DC50.
endpoint: CDK2 degradation 14 h: Average Dmax %

{"columns": ["compound", "value"],
 "data": [
  ["Cc1cc(S(=O)(=O)C2CC3(CCN(CC4CCN(c5cc(F)cc(NC6CCC(=O)NC6=O)c5)CC4)CC3)C2)ccc1Nc1ncc2cc(Cl)c(=O)n(C3CCCC3)c2n1 (centres unmarked) [I-69]", "A (A (>75% o))"],
  ["Cc1cc(S(=O)(=O)C2CC3(CCN(CC4CCN(c5ccc6c(c5F)n(C)c(=O)n6C5CCC(=O)NC5=O)CC4)CC3)C2)ccc1Nc1ncc(C(F)(F)F)c(N2CCCC(C)(O)C2)n1 (centres unmarked) [I-518]", "A (A (>75% o))"],
  ["Cc1cc(S(=O)(=O)NC2CCC(CN3CCN(c4ccc(C5CCC(=O)NC5=O)c(C(F)(F)F)c4)CC3)CC2)ccc1Nc1ncc(C(F)(F)F)c(N2CCCC(C)(O)C2)n1 (centres unmarked) [I-1138]", "B (B (>50% -75%))"],
  ["Cc1cc(S(=O)(=O)N2CCC(CN(C)C3CCN(Cc4cccc5c4n(C)c(=O)n5C4CCC(=O)NC4=O)CC3)CC2)ccc1Nc1ncc2ccc(=O)n(C3CCCC3)c2n1 (centres unmarked) [I-449]", "A (A (>75% o))"]
]}

query: Supply reported CDK2 degradation 14 h: Average Dmax % belonging to this compound: Cc1cc(S(=O)(=O)NC2CC(N3CCN(CC4(F)CCN(c5cccc6c5n(C)c(=O)n6C5CCC(=O)NC5=O)CC4)CC3)C2)ccc1Nc1ncc(C(F)(F)F)c(N2CCCC(C)(O)C2)n1 (centres unmarked) [I-698]
result: A (A (>75% o))

query: Supply reported CDK2 degradation 14 h: Average Dmax % belonging to this compound: Cc1cc(S(=O)(=O)[C@H]2CC[C@H](CN(C)C3CCN(c4cccc5c4n(C)c(=O)n5C4CCC(=O)NC4=O)CC3)CC2)ccc1Nc1ncc2c(n1)N(C1CCCC1)C(=O)C21CC1 (some centres unmarked) [I-53]
result: A (A (>75% o))

query: Supply reported CDK2 degradation 14 h: Average Dmax % belonging to this compound: Cc1cc(S(=O)(=O)NCCOC2CCC(CN3CCC(c4ccc5c(c4F)n(C)c(=O)n5C4CCC(=O)NC4=O)CC3)CC2)ccc1Nc1ncc(C(F)(F)F)c(C2CCC(C)(O)CC2)n1 (centres unmarked) [I-515]
result: A (A (>75% o))

query: Supply reported CDK2 degradation 14 h: Average Dmax % belonging to this compound: Cc1cc(S(=O)(=O)C2CC3(CCN(CC4CCN(c5ccc6c(oc(=O)n6C6CCC(=O)NC6=O)c5F)CC4)CC3)C2)ccc1Nc1ncc2cc(Cl)c(=O)n(C3CCCC3)c2n1 (centres unmarked) [I-302]
result: A (A (>75% o))

query: Supply reported CDK2 degradation 14 h: Average Dmax % belonging to this compound: Cc1cc(S(=O)(=O)N2CCC(N(C)CC3CCN(c4cccc5c4n(C)c(=O)n5C4CCC(=O)NC4=O)CC3)CC2)ccc1Nc1ncc2cc(Cl)c(=O)n(C3CCCC34CC4)c2n1 (centres unmarked) [I-359]
result: A (A (>75% o))

query: Supply reported CDK2 degradation 14 h: Average Dmax % belonging to this compound: Cc1cc(S(=O)(=O)NC2CC(N3CCN(CC4CN(c5cccc6c5n(C)c(=O)n6C5CCC(=O)NC5=O)C4)CC3)C2)ccc1Nc1ncc(C(F)(F)F)c(C2CCC(C)(O)CC2)n1 (centres unmarked) [I-847]
result: A (A (>75% o))

query: Supply reported CDK2 degradation 14 h: Average Dmax % belonging to this compound: Cc1cc(S(=O)(=O)C2CC3(CCN(CC4CCN(c5ccc6c(c5F)n(C)c(=O)n6C5CCC(=O)NC5=O)CC4)CC3)C2)ccc1Nc1ncc(C(F)(F)F)c(N2CCC(C)C(C)(O)C2)n1 (centres unmarked) [I-849]
result: B (B (>50% -75%))

Reference for the values: patent US20240173419A1
